Target: ATP-dependent translocase ABCB1 (Homo sapiens)
Sequence (P08183 whole entry): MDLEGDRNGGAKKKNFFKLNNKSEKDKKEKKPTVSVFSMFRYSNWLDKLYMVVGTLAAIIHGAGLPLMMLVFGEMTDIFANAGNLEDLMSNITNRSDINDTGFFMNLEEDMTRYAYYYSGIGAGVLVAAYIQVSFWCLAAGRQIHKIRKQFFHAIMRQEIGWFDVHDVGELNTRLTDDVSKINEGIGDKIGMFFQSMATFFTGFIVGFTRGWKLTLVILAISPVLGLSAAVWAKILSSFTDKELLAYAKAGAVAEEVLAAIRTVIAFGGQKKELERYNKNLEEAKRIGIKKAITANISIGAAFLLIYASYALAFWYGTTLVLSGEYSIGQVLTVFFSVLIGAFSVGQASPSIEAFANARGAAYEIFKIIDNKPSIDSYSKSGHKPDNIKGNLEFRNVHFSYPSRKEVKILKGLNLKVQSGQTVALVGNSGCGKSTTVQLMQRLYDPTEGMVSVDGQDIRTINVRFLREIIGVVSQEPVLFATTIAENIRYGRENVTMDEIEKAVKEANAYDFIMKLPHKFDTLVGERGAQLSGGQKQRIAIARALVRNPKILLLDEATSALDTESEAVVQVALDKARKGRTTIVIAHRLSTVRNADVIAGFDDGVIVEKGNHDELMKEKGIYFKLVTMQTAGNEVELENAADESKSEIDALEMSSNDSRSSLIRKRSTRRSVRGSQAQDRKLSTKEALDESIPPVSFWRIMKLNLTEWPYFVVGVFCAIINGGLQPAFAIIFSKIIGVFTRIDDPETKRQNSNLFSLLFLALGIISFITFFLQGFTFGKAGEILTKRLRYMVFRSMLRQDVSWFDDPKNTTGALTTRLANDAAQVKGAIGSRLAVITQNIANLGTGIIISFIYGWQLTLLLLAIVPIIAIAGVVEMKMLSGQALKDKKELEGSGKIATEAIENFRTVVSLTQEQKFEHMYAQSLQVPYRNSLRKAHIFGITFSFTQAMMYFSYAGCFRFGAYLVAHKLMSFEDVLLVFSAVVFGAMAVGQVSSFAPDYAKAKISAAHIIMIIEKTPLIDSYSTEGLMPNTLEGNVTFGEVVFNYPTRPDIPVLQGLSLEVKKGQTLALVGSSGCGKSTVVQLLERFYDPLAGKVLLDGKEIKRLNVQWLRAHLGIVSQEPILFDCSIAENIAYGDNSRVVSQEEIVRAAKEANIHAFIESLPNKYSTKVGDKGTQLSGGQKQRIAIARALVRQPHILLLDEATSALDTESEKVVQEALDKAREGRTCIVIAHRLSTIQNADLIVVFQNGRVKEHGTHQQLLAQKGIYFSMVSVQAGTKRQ
Test: Inhibition of P-gp-mediated paclitaxel-resistance in P-glycoprotein-expressing human LCC-6 cells assessed as fractional inhibitory concentration index at 0.5 uM after 5 days by fraction affected plot assay in presence of 1-(3,4,5-Trimethoxybenzyl)-3,4-bis(3,4-dimethoxyphenyl)-1H-pyrrole-2,5-dione
Format: cell-based
Settings: lcc-6, 120 h
endpoint label: fractional inhibitory concentration index (FICI)

                           structure_smiles  result_number
0  COc1ccc(C(=O)CN2C(=O)C(c3ccc(OC)c(OC)c3)=C(c3ccc(OC)c(OC)c3)C2=O)cc1OC           2.05

I. COc1ccc(CCN2C(=O)C(c3ccc(OC)c(OC)c3)=C(c3ccc(OC)c(OC)c3)C2=O)cc1
II. COc1ccc(C(=O)CN2C(=O)C(c3ccc(OC)c(OC)c3)=C(c3ccc(OC)c(OC)c3)C2=O)cc1
Input line: # argmax over fractional inhibitory concentration index (FICI) for candidates I and II Indicate your choice by writing its label.
Output line: I
